Molecular target: Glucose-dependent insulinotropic receptor (Homo sapiens) (UniProt Q8TDV5)
Sequence (whole entry): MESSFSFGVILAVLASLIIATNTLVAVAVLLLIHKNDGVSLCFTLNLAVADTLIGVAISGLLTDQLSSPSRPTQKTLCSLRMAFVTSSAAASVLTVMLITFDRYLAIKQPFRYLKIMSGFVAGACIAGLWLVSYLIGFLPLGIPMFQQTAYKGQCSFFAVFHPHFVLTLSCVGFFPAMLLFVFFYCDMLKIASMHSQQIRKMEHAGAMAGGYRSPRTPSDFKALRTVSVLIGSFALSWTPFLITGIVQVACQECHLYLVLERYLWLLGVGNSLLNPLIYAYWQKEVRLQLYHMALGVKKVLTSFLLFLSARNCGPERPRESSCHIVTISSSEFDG
Test: Intrinsic activity at human GPR119 expressed in HEK293 cells co-expressing Flp-In-T-Rex assessed as cAMP accumulation after 60 mins relative to propan-2-yl 4-({6-[(2-fluoro-4-methanesulfonylphenyl)amino]pyrimidin-4-yl}oxy)piperidine-1-carboxylate
Assay type: functional, cell-based
Measure name: Emax (%)

These solved cases illustrate the format of a correct answer.
CCCc1cnc(N2CCC(C3Cc4c(ccc(C5=CCN(S(=O)(=O)CCC)CC5)c4F)O3)CC2)nc1 (racemic) = 123
CCCS(=O)(=O)N1CC=C(c2ccc3c(c2)CC(C2CCN(c4ccc(C(F)(F)F)cn4)CC2)O3)CC1 (racemic) = 99
CCCS(=O)(=O)N1CC=C(c2ccc3c(c2)CC(C2CCN(c4ncc(C(F)(F)F)cn4)CC2)O3)CC1 (racemic) = 118
CCCS(=O)(=O)N1CC=C(c2ccc3c(c2)CC(C2CCN(C(=O)OC(C)C)CC2)O3)CC1 (racemic) = 61
CCCS(=O)(=O)N1CC=C(c2ccc3c(c2)CC(C2CCN(C(=O)OC4CCCCC4)CC2)O3)CC1 (racemic) = 56

[I] CCCc1cnc(N2CCC(C3Cc4cc(-c5ccc(S(C)(=O)=O)cc5F)ccc4O3)CC2)nc1 (racemic)
[II] CCCc1cnc(N2CCC(C3Cc4cc(C5=CCN(S(=O)(=O)CCC)CC5)cc(F)c4O3)CC2)nc1 (racemic)
Lowest Emax? choose I or II Provide the label of your selected option as the answer. I

[a] CCCS(=O)(=O)N1CC=C(c2ccc3c(c2)CC(C2CCN(S(=O)(=O)CCC)CC2)O3)CC1 (racemic)
[b] CCCc1cnc(N2CCC(C3(C)Cc4cc(C5=CCN(S(=O)(=O)CCCCO)CC5)ccc4O3)CC2)nc1 (racemic)
Given the two records a and b , choose the one whose Emax value is lower. Return value: the label identifying the chosen record. a
(a: 43%, b: 67%)

====

experiment: Metabolic stability in human liver microsomes assessed as compound remaining after 10 mins; assay type: ADME; conditions: read-out: Stability
Measure name: remaining at 10 min (%)

// below: answered molecules
CCCc1cnc(N2CCC(C3Cc4c(F)c(C5=CCN(S(=O)(=O)CCC(C)(C)O)CC5)cc(F)c4O3)CC2)nc1 (racemic) = 55
CCCS(=O)(=O)N1CC=C(c2ccc3c(c2)CC(C2CCN(c4ccc(C(F)(F)F)cn4)CC2)O3)CC1 (racemic) = 47
CCCc1cnc(N2CCC(C3Cc4cc(C5CCN(S(=O)(=O)CCC)CC5)ccc4O3)CC2)nc1 (racemic) = 70
CCCc1cnc(N2CCC(C3(C)Cc4cc(C5=CCN(S(=O)(=O)CCCO)CC5)ccc4O3)CC2)nc1 (racemic) = 72
CCCc1cnc(N2CCC(C3Cc4cc(N5CCN(S(=O)(=O)CCC)CC5)ccc4O3)CC2)nc1 (racemic) = 82

[A] CCCS(=O)(=O)N1CC=C(c2ccc3c(c2)CC(C2CCN(C(=O)OC(C)C)CC2)O3)CC1 (racemic)
[B] CCCc1cnc(N2CCC(C3Cc4c(F)c(C5=CCN(S(=O)(=O)CCCO)CC5)cc(F)c4O3)CC2)nc1 (racemic)
Given the listed records, identify the one among A and B with higher remaining at 10 min. Write down the label of the entry you select. B
(B: 89%, A: 10%)

====

molecular target: Glucose-dependent insulinotropic receptor (Homo sapiens, UniProt Q8TDV5); assay: Agonist activity at human GPR119 expressed in HEK293 cells co-expressing Flp-In-T-Rex assessed as cAMP accumulation after 60 mins
Measure name: EC50 (nM)

Here is how some compounds turned out for EC50.
CCCS(=O)(=O)N1CC=C(c2ccc3c(c2)CC(C2CCN(c4ncc(C5CC5)cn4)CC2)O3)CC1 (racemic) = 67
CCCc1cnc(N2CCC(C3(C)Cc4cc(C5=CCN(S(=O)(=O)CCCO)CC5)ccc4O3)CC2)nc1 (racemic) = 78
CCCc1cnc(N2CCC(C3(C)Cc4cc(C5=CCN(S(=O)(=O)CCC)CC5)ccc4O3)CC2)nc1 (racemic) = 70

[A] CCCc1cnc(N2CCC(C3Cc4cc(C5=CCN(S(=O)(=O)CCCO)CC5)cc(F)c4O3)CC2)nc1 (racemic)
[B] CCCc1cnc(N2CCC(C3Cc4c(ccc(C5=CCN(S(=O)(=O)CCC)CC5)c4F)O3)CC2)nc1 (racemic)
[C] CCCS(=O)(=O)N1CC=C(c2ccc3c(c2)CC(C2CCN(c4ncc(C(F)(F)F)cn4)CC2)O3)CC1 (racemic)
Rank by EC50 (largest to smallest). A ranking is expressed here by listing the labels in the requested order. A, C, B

[I] CCCS(=O)(=O)N1CC=C(c2ccc3c(c2)CC(C2CCN(c4ncc(Cl)cn4)CC2)O3)CC1 (racemic)
[II] CCCc1cnc(N2CCC(C3(C)Cc4cc(C5=CCN(S(=O)(=O)CCCCO)CC5)ccc4O3)CC2)nc1 (racemic)
Lower EC50: I or II ? Provide the label of your selected option as the answer. II
(II: 28 nM, I: 78 nM)

[P] CCCS(=O)(=O)N1CC=C(c2ccc3c(c2)CC(C2CCN(C(=O)OC(C)C)CC2)O3)CC1 (racemic)
[Q] CCCc1cnc(N2CCC(C3Cc4cc(C5=CCN(S(=O)(=O)CCC)CC5)cc(F)c4O3)CC2)nc1 (racemic)
I'd appreciate it if you could identify which of P and Q has the greater EC50. Please reply using the label of the selected record. P
(P: 103 nM, Q: 62 nM)

[P] CCCS(=O)(=O)N1CC=C(c2ccc3c(c2)CC(C2CCN(c4ccc(C(F)(F)F)cn4)CC2)O3)CC1 (racemic)
[Q] CCCc1cnc(N2CCC(C3Cc4cc(C5=CCN(S(=O)(=O)CCCCO)CC5)cc(F)c4O3)CC2)nc1 (racemic)
Response body: label of entry with the larger EC50; valid values P , Q . Indicate which entry you chose by stating its label. Q
(Q: 60 nM, P: 34 nM)

[a] CCCS(=O)(=O)N1CC=C(c2ccc3c(c2)CC(C2CCN(C(=O)OC4CCCCC4)CC2)O3)CC1 (racemic)
[b] CCCc1cnc(N2CCC(C3Cc4cc(C5CCN(S(=O)(=O)CCC)CC5)ccc4O3)CC2)nc1 (racemic)
Between a and b , which one has the lower reported EC50 value? Mark your answer with the label of the selected entry. a

====

assay: Metabolic stability in mouse liver microsomes assessed as compound remaining after 10 mins; assay type: ADME; conditions: read-out: Stability
Measure name: remaining at 10 min (%)

These solved cases illustrate the format of a correct answer.
CCCc1cnc(N2CCC(C3Cc4c(F)c(C5=CCN(S(=O)(=O)CCC)CC5)cc(F)c4O3)CC2)nc1 (racemic) = 80
CCCc1cnc(N2CCC(C3Cc4cc(C5=CCN(S(=O)(=O)CCC)CC5)ccc4O3)CC2)nc1 (racemic) = 58
CCCc1cnc(N2CCC(C3Cc4c(F)c(C5=CCN(S(=O)(=O)CCCO)CC5)cc(F)c4O3)CC2)nc1 (racemic) = 82
CCCc1cnc(N2CCC(C3(C)Cc4cc(C5=CCN(S(=O)(=O)CCCCO)CC5)ccc4O3)CC2)nc1 (racemic) = 70

[A] CCCc1cnc(N2CCC(C3(C)Cc4cc(C5=CCN(S(=O)(=O)CCC)CC5)ccc4O3)CC2)nc1 (racemic)
[B] CCCS(=O)(=O)N1CC=C(c2ccc3c(c2)CC(C2CCN(c4ncc(C5CC5)cn4)CC2)O3)CC1 (racemic)
Choose between A and B : whose measured remaining at 10 min value is numerically larger? Reply briefly: the label of your chosen item. A

====

target: Glucose-dependent insulinotropic receptor (Homo sapiens, UniProt Q8TDV5); assay: Agonist activity at human GPR119 expressed in HEK293 cells co-expressing Flp-In-T-Rex assessed as cAMP accumulation after 60 mins; assay type: functional, cell-based
pEC50: −log10 of the molar value.
Measure name: pEC50

CCCc1cnc(N2CCC(C3Cc4c(F)c(C5=CCN(S(=O)(=O)CCC)CC5)cc(F)c4O3)CC2)nc1 (racemic) = 8.70
CCCc1cnc(N2CCC(C3Cc4c(F)c(C5=CCN(S(=O)(=O)CCCO)CC5)cc(F)c4O3)CC2)nc1 (racemic) = 7.80

[A] CCCS(=O)(=O)N1CC=C(c2ccc3c(c2)CC(C2CCN(Cc4ccccc4)CC2)O3)CC1 (racemic)
[B] CCCc1cnc(N2CCC(C3Cc4c(F)c(C5=CCN(S(=O)(=O)CCC(C)(C)O)CC5)cc(F)c4O3)CC2)nc1 (racemic)
Exercise: compare A and B ; which one has the greater pEC50? Write the label of whichever entry you select. B
(B: 7.00, A: 6.28)
